B1: PCDHGA10 (parent)
chain: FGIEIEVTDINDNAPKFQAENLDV

- Variants of: B1
- assay-procedure: protein stability index of a GFP-peptide fusion (GPS, HEK-293T) (PSI 1-6); higher = more stable;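 further: lentivirally expressed fusions sorted by FACS into six bins by GFP to DsRed ratio, PSI derived from sequencing read proportions per bin multiplied by bin number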
- condition: c terminus: a fixed tail appended
experimental-endpoint: protein stability index
Quick one: just the number, no unit, thanks!

Recorded protein stability index of FGIEIEVTDINDNAPKFQAENLRV [D23R] , please.
1.93

Further cases:
Recorded protein stability index of FGIEIEVTDINDNAPKFQAENLIV [D23I] , please.
1.93

Recorded protein stability index of FGIEIEVTDINDDAPKFQAENLDV [N13D] , please.
3.43

Recorded protein stability index of FGIEIEVTDINDNAPWFQAENLDV [K16W] , please.
1.72

Recorded protein stability index of FGIEIEVTDINDHAPKFQAENLDV [N13H] , please.
2.36

Recorded protein stability index of FGIEIEVTDINDNAPKFQAFNLDV [E20F] , please.
2.51

Recorded protein stability index of FGITIEVTDINDNAPKFQAENLDV [E4T] , please.
2.12

Recorded protein stability index of YGIEIEVTDINDNAPKFQAENLDV [F1Y] , please.
3.52

Recorded protein stability index of FGIETEVTDINDNAPKFQAENLDV [I5T] , please.
5.08

Recorded protein stability index of FGIEIEVTDINDNWPKFQAENLDV [A14W] , please.
1.67
